# Test system: AncSZ;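 further: 11-residue human phosphosite peptides and single-mutation variants displayed on the E. coli surface, counted by deep sequencing, each peptide's frequency after selection divided by its frequency in the unselected input library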;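 further: frequency after pTyr selection over input frequency; kinase dosed for 20-30% of maximal phosphorylation in three min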
# protocol summary: phosphorylation enrichment, bacterial display (enrichment ratio); higher = better substrate or ligand; peptides without Tyr show the background
measurement type: phosphorylation enrichment
Returns: the value as a bare number; no unit string appended.

Incoming: Which phosphorylation enrichment reading was recorded for the sequence PMQLPYDSRWE [PDGFRA_Y582] ?
Outgoing: 1.05

###

# assayed target: Grb2 SH2 (UniProt P62993)
# Sequence (P62993 whole entry, looked up): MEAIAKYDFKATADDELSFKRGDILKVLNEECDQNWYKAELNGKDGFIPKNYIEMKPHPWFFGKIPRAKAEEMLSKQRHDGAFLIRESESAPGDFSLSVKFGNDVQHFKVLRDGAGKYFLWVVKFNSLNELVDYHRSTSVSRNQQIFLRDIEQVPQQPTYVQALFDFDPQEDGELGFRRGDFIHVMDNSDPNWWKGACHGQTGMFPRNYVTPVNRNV
# protocol summary: SH2 binding enrichment of the phosphorylated peptide, bacterial display (enrichment ratio); higher = better substrate or ligand; peptides without Tyr show the background
Classify as follows. Reported SH2 binding enrichment greater than or equal to 1: label 1. Reported SH2 binding enrichment below: label 0.

Examples with answers:
>  <biosequence>
HSGVSYYINLC [IGF2R_Y2024_N2020S]

>  <label value>
label 0

$$$$
>  <biosequence>
ISIFHCAKGQP [MPZ_Y82_Y82C]

>  <label value>
label 1

$$$$
>  <biosequence>
DWRQEYVLNES [TGM1_Y267]

>  <label value>
label 0

$$$$
>  <biosequence>
EEGENYQKGEQ [CHGB_Y173_R178Q]

>  <label value>
label 0

$$$$

Let's switch to this sequence now.
Incoming: hey, is SH2 binding enrichment for this one >= 1? RELGKYGLQAY [ALDH2_Y497_E496K]
Outgoing: label 1
